target: recombinant human MER (Homo sapiens); assay: HTRF KinEASE-TK biochemical potency, MER; settings: 1 nM MER, 700 μM ATP
Sequence (Q12866 21-999): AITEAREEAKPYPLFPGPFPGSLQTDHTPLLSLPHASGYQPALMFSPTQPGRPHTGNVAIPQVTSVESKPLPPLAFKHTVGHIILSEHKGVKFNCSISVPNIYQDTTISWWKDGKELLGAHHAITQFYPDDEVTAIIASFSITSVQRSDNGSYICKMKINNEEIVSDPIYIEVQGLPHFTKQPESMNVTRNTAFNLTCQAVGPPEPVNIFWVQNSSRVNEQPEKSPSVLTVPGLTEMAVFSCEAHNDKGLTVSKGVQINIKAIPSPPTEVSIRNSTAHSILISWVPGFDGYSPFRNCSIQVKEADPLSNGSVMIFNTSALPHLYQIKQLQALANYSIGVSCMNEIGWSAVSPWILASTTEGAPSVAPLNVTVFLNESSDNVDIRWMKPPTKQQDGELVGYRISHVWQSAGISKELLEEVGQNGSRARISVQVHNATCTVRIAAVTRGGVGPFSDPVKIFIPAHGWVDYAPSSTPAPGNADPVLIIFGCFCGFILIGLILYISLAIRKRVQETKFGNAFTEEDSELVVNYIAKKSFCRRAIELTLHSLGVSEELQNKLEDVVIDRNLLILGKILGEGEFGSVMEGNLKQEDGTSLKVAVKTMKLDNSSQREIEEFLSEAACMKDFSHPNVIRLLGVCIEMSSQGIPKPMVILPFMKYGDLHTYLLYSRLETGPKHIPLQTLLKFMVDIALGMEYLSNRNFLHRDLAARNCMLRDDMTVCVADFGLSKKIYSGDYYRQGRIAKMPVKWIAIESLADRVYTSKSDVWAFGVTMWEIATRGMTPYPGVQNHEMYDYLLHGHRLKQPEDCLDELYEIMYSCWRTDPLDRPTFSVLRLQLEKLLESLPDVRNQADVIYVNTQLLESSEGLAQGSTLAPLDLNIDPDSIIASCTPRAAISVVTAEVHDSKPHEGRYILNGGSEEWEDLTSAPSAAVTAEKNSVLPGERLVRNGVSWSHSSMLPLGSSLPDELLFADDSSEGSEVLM
observable: IC50

>>> print(df.to_string())
                                    compound  observable     assayresult
 0  C[C@H]1CCCN1C1CCc2ccc(-c3cnc4[nH]nc(-c5ccc6c(c5)OCCNC6=O)c4c3)cc2CC1 (stereo partly drawn) [Example 43]        IC50        < 100 nM
 1  O=C1NCCOc2cc(-c3n[nH]c4ncc(-c5ccc6c(c5)CCC(N5CCCC5)CC6)cc34)ccc21 (racemic) [Example 1]        IC50        < 100 nM
 2  CC1(N2CCCC2)CCc2ccc(-c3cnc4[nH]nc(-c5ccc6c(c5)OCCNC6=O)c4c3)cc2CC1 (stereo not drawn) [Example 22]        IC50        < 100 nM
 3  O=C1NCCOc2cc(-c3n[nH]c4ncc(-c5ccc6c(c5)CCC(N5CCC5)CC6)cc34)ccc21 (stereo not drawn) [Example 52]        IC50        < 100 nM
 4  C[C@H]1CCCN1C1(C)CCc2ccc(-c3cnc4[nH]nc(-c5ccc6c(c5)OCCNC6=O)c4c3)cc2CC1 (stereo partly drawn) [Example 24]        IC50        < 100 nM
 5  C[C@@H]1CCCN1C1CCc2ccc(-c3cnc4[nH]nc(-c5ccc6c(c5)OCCC6(C)O)c4c3)cc2CC1 (stereo partly drawn) [Example 29]        IC50  100 to 1000 nM
 6  O=C1NCCOc2cc(-c3n[nH]c4ncc(-c5ccc6c(c5)CCC(N5CCC[C@@H]5CO)CC6)cc34)ccc21 (stereo partly drawn) [Example 49]        IC50        < 100 nM
 7  O=C1NCCOc2cc(-c3n[nH]c4ncc(-c5ccc6c(c5)CNCC6)cc34)ccc21 [Example 55]        IC50  100 to 1000 nM
 8  O=C1NCCOc2cc(-c3n[nH]c4ncc(-c5ccc6c(c5)CCC(N5CCOCC5)CC6)cc34)ccc21 (stereo not drawn) [Example 47]        IC50        < 100 nM
 9  CC[C@@H]1CCCN1C1CCc2ccc(-c3cnc4[nH]nc(-c5ccc6c(c5)OCCNC6=O)c4c3)cc2CC1 (stereo partly drawn) [Example 25]        IC50        < 100 nM
10  O=C1NCCOc2cc(-c3n[nH]c4ncc(-c5ccc6c(c5)CCC(NC5CCCC5)CC6)cc34)ccc21 (stereo not drawn) [Example 42]        IC50        < 100 nM
11  O=C1NCCOc2cc(-c3n[nH]c4ncc(-c5ccc6c(c5)CCC(N[C@@H]5CCOC5)C6)cc34)ccc21 (stereo partly drawn) [Example 5]        IC50        < 100 nM
12  C[C@@H]1CCCN1C1CCc2cc(F)c(-c3cnc4[nH]nc(-c5ccc6c(c5)OCCNC6=O)c4c3)cc2CC1 (stereo partly drawn) [Example 58]        IC50        < 100 nM
13  C[C@@H]1CCCN1C1CCc2ccc(-c3cnc4[nH]nc(-c5ccc6c(c5)OCC5(CCC5)NC6=O)c4c3)cc2CC1 (stereo partly drawn) [Example 37]        IC50        < 100 nM
14  COCCN1CCc2cc(-c3cnc4[nH]nc(-c5ccc6c(c5)OCCNC6=O)c4c3)ccc2C1 [Example 13]        IC50  100 to 1000 nM

These data points were gathered from patent US20240226115A1.
